FYI, the data here is from ChEMBL document CHEMBL5344477.

Assay: AUClast in Sprague-Dawley rat at 5 mg/kg, po measured upto 24 hrs by LC-MS/MS analysis
Assay type: ADME, organism-based
Design: dose 5 mg/kg, time < 24 hrs, route po
Conditions: in vivo
What log10 AUC(0-t) at 24 h was measured for each of the following?
A value of 2 here means AUC(0-t) at 24 h of 100 in ng·h/mL, since values are log10.

Ask: Find the recorded log10 AUC(0-t) at 24 h belonging to O=C1CCCc2cc(F)c(C(=O)Nc3cccc(-c4nncn4C4CC4)n3)cc2N1 and report it.
Reply: 3.43

Ask: How about this compound: CC(C)n1cnnc1-c1cccc(NC(=O)c2cc3c(cc2F)CCCC(=O)N3C)c1
Reply: 2.85

Ask: How about this compound: Cc1cc(F)c(C(=O)Nc2cccc(-c3nncn3C(C)C)n2)cc1-n1cnc(C2CC2)c1 [SELONSERTIB]
Reply: 4.58

Ask: How about this compound: CC(C)n1cnnc1-c1cccc(NC(=O)c2cc3c(cc2F)C(C)(C)CC(=O)N3C)n1
Reply: 3.50

Ask: How about this compound: CC(C)n1cnnc1-c1cccc(NC(=O)c2cc3c(cc2F)CCCC(=O)N3)n1
Reply: 3.68

Ask: How about this compound: O=C1COc2cc(F)c(C(=O)Nc3cccc(-c4nncn4-c4ccccc4)n3)cc2N1
Reply: 4.08

Ask: How about this compound: O=C(Nc1cccc(-c2nncn2CC2CC2)n1)c1cc2c(cc1F)OCc1cncn1-2
Reply: 3.89

Ask: How about this compound: CN1C(=O)CCCc2cc(F)c(C(=O)Nc3cccc(-c4nncn4C4CC4)n3)cc21
Reply: 3.88

Ask: How about this compound: O=C1COc2cc(F)c(C(=O)Nc3cccc(-c4nncn4C4CCCC4)n3)cc2N1
Reply: 3.53

Ask: How about this compound: CC(C)n1cnnc1-c1cccc(NC(=O)c2cc3c(cc2F)OCC(=O)N3C)n1
Reply: 4.04

Ask: How about this compound: CC(C)n1cnnc1-c1cccc(NC(=O)c2cc3c(cc2F)CCC(=O)N3)c1
Reply: 2.20

Ask: How about this compound: CC(C)n1cnnc1-c1cccc(NC(=O)c2cc3c(cc2F)CCC(=O)N3C)n1
Reply: 3.42

Ask: How about this compound: CC(CO)n1cnnc1-c1cccc(NC(=O)c2cc3c(cc2F)CCCC(=O)N3C)n1 (configuration not stated)
Reply: 1.79

Ask: How about this compound: O=C(Nc1cccc(-c2nncn2CC2CC2)c1)c1cc2c(cc1F)OCc1cncn1-2
Reply: 2.94

Ask: How about this compound: CC(C)n1cnnc1-c1cccc(NC(=O)c2cc3c(cc2F)OCC(=O)N3)n1
Reply: 3.63

Ask: How about this compound: CC(C)n1cnnc1-c1cccc(NC(=O)c2cc3c(cc2F)OCc2cncn2-3)c1
Reply: 2.97

Ask: How about this compound: CC(C)n1cnnc1-c1cccc(NC(=O)c2cc3c(cc2F)CCC(=O)N3)n1
Reply: 2.73

Ask: How about this compound: CC(C)n1cnnc1-c1cccc(NC(=O)c2cc3c(cc2F)C(C)(C)CC(=O)N3)n1
Reply: 3.66

Ask: How about this compound: CC(CO)n1cnnc1-c1cccc(NC(=O)c2cc3c(cc2F)OCC(=O)N3)n1 (configuration not stated)
Reply: 1.32

Ask: How about this compound: CC(C)n1cnnc1-c1cccc(NC(=O)c2cc3c(cc2F)CCCC(=O)N3C)n1
Reply: 3.34

Ask: How about this compound: CC(C)n1cnnc1-c1cccc(NC(=O)c2cc3c(cc2F)OCc2cncn2-3)n1
Reply: 3.36

Ask: How about this compound: CC(C)n1cnnc1-c1cccc(NC(=O)c2cc3c(cc2F)CCCC(=O)N3)c1
Reply: 2.40
